- TEST TARGET: AGTR1 (Homo sapiens, UniProt P30556)
- Construct: host or cells: Pathunter CHO-K1 AGTR1 β-arrestin cell line (CHO-K1)
- Sequence (P30556 whole entry): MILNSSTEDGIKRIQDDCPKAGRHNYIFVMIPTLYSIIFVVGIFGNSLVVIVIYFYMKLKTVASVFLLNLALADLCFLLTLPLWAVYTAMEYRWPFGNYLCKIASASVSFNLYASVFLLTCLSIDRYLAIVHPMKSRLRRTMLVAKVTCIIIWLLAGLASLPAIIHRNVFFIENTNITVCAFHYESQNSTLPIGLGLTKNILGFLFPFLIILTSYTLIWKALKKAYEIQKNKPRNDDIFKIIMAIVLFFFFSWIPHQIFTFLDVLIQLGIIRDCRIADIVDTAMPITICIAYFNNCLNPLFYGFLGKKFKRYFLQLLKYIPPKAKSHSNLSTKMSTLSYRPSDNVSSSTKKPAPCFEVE
- METHOD DESCRIPTION: DiscoveRx β-arrestin2 recruitment assay (enzyme complementation, Pathunter CHO-K1 AGTR1 β-arrestin cell line)
- Assay type: cell-based
- EXPERIMENTAL SETUP: DiscoveRx β-arrestin2 recruitment, maximal response
Tick Criterion met if DiscoveRx β-arrestin2 Ymax (%) is 30% or greater. Tick Criterion not met if DiscoveRx β-arrestin2 Ymax (%) is less than 30%.

Would you please look over these solved cases?
| SMILES CODE | LABEL |
| --- | --- |
| CCc1nc2c(C)cc(C)nc2n1Cc1ccc(-c2cc(-c3cn(CCO)nn3)ccc2-c2nnn[nH]2)cc1 | Criterion met |
| CCOc1nc2cccc(C(=O)O)c2n1Cc1ccc(-c2cc(-n3cnc4ccccc43)ccc2-c2nn[nH]n2)cc1 | Criterion met |
| CCc1nc2c(C)cc(C)nc2n1Cc1ccc(-c2cc(-n3cc(C)nn3)ccc2-c2nnn[nH]2)cc1 | Criterion met |
| CCc1nc2c(C)cc(C)nc2n1Cc1ccc(-c2cc(-c3cncc(C)c3)ccc2-c2nn[nH]n2)cc1 | Criterion met |
| CCc1nc2c(C)cc(C)nc2n1Cc1cnc(-c2cc(-c3cccc(C)c3)ccc2C(=O)O)nc1 | Criterion not met |

Q: Does "CCOc1nc2cccc(C(=O)O)c2n1Cc1ccc(-c2cc(Oc3cnccc3C)ccc2-c2nn[nH]n2)cc1" have a reported DiscoveRx β-arrestin2 Ymax (%) of at least 30%?
Result: Criterion met

Q: Form field: DiscoveRx β-arrestin2 Ymax (%) at least 30%? Entry: "CCc1nc2c(C)cc(C)nc2n1Cc1ccc(-c2cc(-c3cc(C)c(F)cn3)ccc2-c2nn[nH]n2)cc1"
Result: Criterion not met
